Entries and their measured bioavailability follow.
# Measurement Notes: Oral bioavailability in dog (mongrel)
# Format: ADME, organism-based, Canis lupus familiaris
# Run Conditions: in vivo
Measurement Name: bioavailability (%)

{"Entry Smiles": "Oc1ccc2[nH]c(CN3CCC(Cc4ccccc4)CC3)nc2c1", "Observed Value": 90}
{"Entry Smiles": "Oc1ccc2[nH]c(CN3CCC(Cc4ccccc4F)CC3)nc2c1", "Observed Value": 87}

---

This listing pairs compounds with measured log10(Ki).
# Target Or Test System: Glutamate NMDA receptor; GRIN1/GRIN2B (Homo sapiens, UniProt Q05586+Q13224)
# Sequence (Q13224 whole entry, other chains not shown): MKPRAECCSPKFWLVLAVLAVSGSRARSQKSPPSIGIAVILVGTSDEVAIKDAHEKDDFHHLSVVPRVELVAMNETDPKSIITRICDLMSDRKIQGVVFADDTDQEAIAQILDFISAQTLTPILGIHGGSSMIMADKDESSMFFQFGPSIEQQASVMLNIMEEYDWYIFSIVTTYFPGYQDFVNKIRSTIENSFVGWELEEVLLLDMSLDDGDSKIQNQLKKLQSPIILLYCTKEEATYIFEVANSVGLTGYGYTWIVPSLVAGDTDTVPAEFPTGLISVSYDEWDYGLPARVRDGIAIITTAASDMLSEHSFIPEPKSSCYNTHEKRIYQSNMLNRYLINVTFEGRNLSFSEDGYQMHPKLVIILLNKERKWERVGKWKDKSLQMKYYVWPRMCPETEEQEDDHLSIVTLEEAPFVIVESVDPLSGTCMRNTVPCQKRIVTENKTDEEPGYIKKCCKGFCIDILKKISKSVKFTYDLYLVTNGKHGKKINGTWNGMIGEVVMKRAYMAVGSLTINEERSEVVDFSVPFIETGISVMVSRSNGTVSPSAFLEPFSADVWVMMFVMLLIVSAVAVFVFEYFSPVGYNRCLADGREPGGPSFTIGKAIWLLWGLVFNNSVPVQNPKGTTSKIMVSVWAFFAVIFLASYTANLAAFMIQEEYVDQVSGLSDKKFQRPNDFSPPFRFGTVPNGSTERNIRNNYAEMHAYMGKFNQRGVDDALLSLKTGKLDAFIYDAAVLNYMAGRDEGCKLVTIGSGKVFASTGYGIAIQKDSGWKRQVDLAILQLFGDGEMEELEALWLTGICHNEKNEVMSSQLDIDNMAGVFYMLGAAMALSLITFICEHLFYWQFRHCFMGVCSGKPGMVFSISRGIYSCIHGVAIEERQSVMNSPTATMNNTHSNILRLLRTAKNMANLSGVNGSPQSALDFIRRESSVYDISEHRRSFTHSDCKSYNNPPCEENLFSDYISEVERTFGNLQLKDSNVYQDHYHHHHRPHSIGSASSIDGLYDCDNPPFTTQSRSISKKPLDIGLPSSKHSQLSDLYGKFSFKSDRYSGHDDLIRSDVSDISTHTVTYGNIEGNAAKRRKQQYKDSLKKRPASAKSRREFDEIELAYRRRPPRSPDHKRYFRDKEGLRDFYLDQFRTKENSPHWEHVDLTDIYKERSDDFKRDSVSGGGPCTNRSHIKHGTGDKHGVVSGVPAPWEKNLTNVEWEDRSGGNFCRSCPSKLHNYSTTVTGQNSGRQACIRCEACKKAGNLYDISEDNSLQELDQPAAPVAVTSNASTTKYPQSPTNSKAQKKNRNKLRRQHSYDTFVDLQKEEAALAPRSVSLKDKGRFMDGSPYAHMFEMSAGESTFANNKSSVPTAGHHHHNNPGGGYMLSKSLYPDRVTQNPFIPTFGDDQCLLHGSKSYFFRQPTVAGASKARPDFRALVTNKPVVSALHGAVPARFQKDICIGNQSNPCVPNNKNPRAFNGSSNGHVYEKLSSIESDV
# Measurement Notes: Compound was evaluated for in vitro inhibition of [3H][(E)-N-(2-methoxybenzyl)cinnamamidine binding to human NR1a/NR2B receptors expressed in LtK-cells
# Type: cell-based
Measurement Name: log10(Ki) (log10 of the value in nM)

{"Entry Smiles": "CN(c1ccc2[nH]c(Cc3ccc(Oc4ccccc4)cc3)nc2c1)S(C)(=O)=O", "log10(Ki)": 2.67}
{"Entry Smiles": "CC(C)S(=O)(=O)Nc1ccc2[nH]c(Cc3ccc(Oc4ccccc4)cc3)nc2c1", "log10(Ki)": 1.18}
{"Entry Smiles": "c1ccc(Oc2ccc(Cc3nc4ccccc4[nH]3)cc2)cc1", "log10(Ki)": 2.41}
{"Entry Smiles": "Oc1ccc2[nH]c(Cc3ccc(Oc4ccccc4)cc3)nc2c1", "log10(Ki)": 0.51}
{"Entry Smiles": "N#Cc1ccc2[nH]c(Cc3ccc(Oc4ccccc4)cc3)nc2c1", "log10(Ki)": 2.90}
{"Entry Smiles": "Oc1ccc2[nH]c(CN3CCC(Cc4ccc(F)cc4)CC3)nc2c1", "log10(Ki)": 0.04}
{"Entry Smiles": "Oc1ccc2[nH]c(CN3CCC(Cc4cccc(F)c4)CC3)nc2c1", "log10(Ki)": 0.62}
{"Entry Smiles": "O=S(=O)(Nc1ccc2[nH]c(Cc3ccc(Oc4ccccc4)cc3)nc2c1)c1ccccc1", "log10(Ki)": 1.23}
{"Entry Smiles": "CS(=O)(=O)Nc1ccc2[nH]c(Cc3ccc(Oc4ccccc4)cc3)nc2c1", "log10(Ki)": -0.17}
{"Entry Smiles": "CC(C)S(=O)(=O)Nc1ccc2[nH]c(CN3CCC(Cc4ccccc4)CC3)nc2c1", "log10(Ki)": 2.38}
{"Entry Smiles": "Cc1ccc(CC2CCN(Cc3nc4cc(O)ccc4[nH]3)CC2)cc1", "log10(Ki)": -0.40}
{"Entry Smiles": "CCS(=O)(=O)Nc1ccc2[nH]c(Cc3ccc(Oc4ccccc4)cc3)nc2c1", "log10(Ki)": 0.48}
{"Entry Smiles": "CCCS(=O)(=O)Nc1ccc2[nH]c(Cc3ccc(Oc4ccccc4)cc3)nc2c1", "log10(Ki)": 1.32}
{"Entry Smiles": "CC(=O)Nc1ccc2[nH]c(Cc3ccc(Oc4ccccc4)cc3)nc2c1", "log10(Ki)": 1.97}
{"Entry Smiles": "CS(=O)(=O)Nc1ccc2nc(CN3CCC(Cc4ccccc4)CC3)[nH]c2c1", "log10(Ki)": 0.00}
{"Entry Smiles": "Nc1ccc2[nH]c(Cc3ccc(Oc4ccccc4)cc3)nc2c1", "log10(Ki)": 2.26}
{"Entry Smiles": "COc1ccc2[nH]c(Cc3ccc(Oc4ccccc4)cc3)nc2c1", "log10(Ki)": 3.92}
{"Entry Smiles": "Oc1ccc2[nH]c(CN3CCC(Cc4ccccc4F)CC3)nc2c1", "log10(Ki)": -0.07}
{"Entry Smiles": "Oc1cccc2[nH]c(Cc3ccc(Oc4ccccc4)cc3)nc12", "log10(Ki)": 2.15}
{"Entry Smiles": "Oc1ccc2[nH]c(CN3CCC(Cc4c(F)cccc4F)CC3)nc2c1", "log10(Ki)": -0.09}
{"Entry Smiles": "c1ccc(CC2CCN(Cc3nc4ccccc4[nH]3)CC2)cc1", "log10(Ki)": 2.62}
